# System: 845751-090-R-J2-PDC tumor spheroid viability;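 also: spheroids exposed to compounds for 7 days before readout; CTG3D luminescence normalised so that 100% = DMSO vehicle control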
# TEST DETAILS: Anticancer human tumor 845751-090-R-J2-PDC patient-derived head and neck squamous carcinoma cell line growth inhibition [IpAb]
# RUN PARAMETERS: second compound 0.316 µM; first compound 0.316 µM; active compounds read low; spheroids with HUVEC and MSC
Property: viability, T/C; scope: individual molecules
MEASURE: viability, T/C (%)

>  <MOLECULE>
COc1c(OCCCN2CCOCC2)ccc2c3n(c(=NC(=O)c4cnc(N)nc4)nc12)CCN3 + CCN1CCN(Cc2ccc(Nc3ncc(F)c(-c4cc(F)c5nc(C)n(C(C)C)c5c4)n3)nc2)CC1

>  <MEASURE>
viability, T/C

>  <UNITS LABEL>
%

>  <READOUT NUMBER>
11.7

$$$$
>  <MOLECULE>
C=CCn1c(=O)c2cnc(Nc3ccc(N4CCN(C)CC4)cc3)nc2n1-c1cccc(C(C)(C)O)n1 + CC(C)NCC(C(=O)N1CCN(c2ncnc3c2C(C)CC3O)CC1)c1ccc(Cl)cc1

>  <MEASURE>
viability, T/C

>  <UNITS LABEL>
%

>  <READOUT NUMBER>
19.9

$$$$
>  <MOLECULE>
CCCS(=O)(=O)Nc1ccc(F)c(C(=O)c2c[nH]c3ncc(-c4ccc(Cl)cc4)cc23)c1F + CCN1CCN(Cc2ccc(Nc3ncc(F)c(-c4cc(F)c5nc(C)n(C(C)C)c5c4)n3)nc2)CC1

>  <MEASURE>
viability, T/C

>  <UNITS LABEL>
%

>  <READOUT NUMBER>
63.4

$$$$
>  <MOLECULE>
Cc1nc(NC(=O)N2CCCC2C(N)=O)sc1-c1ccnc(C(C)(C)C(F)(F)F)c1 (stereo unspecified) + CCN1CCN(Cc2ccc(Nc3ncc(F)c(-c4cc(F)c5nc(C)n(C(C)C)c5c4)n3)nc2)CC1

>  <MEASURE>
viability, T/C

>  <UNITS LABEL>
%

>  <READOUT NUMBER>
25.9

$$$$
>  <MOLECULE>
C=CCn1c(=O)c2cnc(Nc3ccc(N4CCN(C)CC4)cc3)nc2n1-c1cccc(C(C)(C)O)n1 + CCN1CCN(Cc2ccc(Nc3ncc(F)c(-c4cc(F)c5nc(C)n(C(C)C)c5c4)n3)nc2)CC1

>  <MEASURE>
viability, T/C

>  <UNITS LABEL>
%

>  <READOUT NUMBER>
69.2

$$$$
>  <MOLECULE>
C=CC(=O)N1CCN(c2nc(=O)n(-c3c(C)ccnc3C(C)C)c3nc(-c4c(O)cccc4F)c(F)cc23)C(C)C1 (stereo unspecified) + CC(C)NCC(C(=O)N1CCN(c2ncnc3c2C(C)CC3O)CC1)c1ccc(Cl)cc1

>  <MEASURE>
viability, T/C

>  <UNITS LABEL>
%

>  <READOUT NUMBER>
21.2

$$$$
